PROTOCOL_NOTES: growth inhibitors of tim23-1 mutant yeast, primary screen, luminescence, uHTS (AID 463212);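 further: temperature-sensitive mutant grown at 25 °C; plate controls were DMSO-treated mutant yeast for no effect and medium wells lacking yeast for full effect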
DETAILS: S. cerevisiae tim23-1 growth, BacTiter-Glo luminescence, 24 h; at 20 µM
In all, about 330,000 compounds went through this assay and about 4,400 (1.3%) were called active.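 How the source made its calls: active means growth inhibition of the mutant yeast at or above 50%; inactive means the rest.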 This excerpt belongs to a sample that is enriched for actives.
Possible outcomes: active, inactive

COMPOUND	QUALITATIVE_LABEL
O=c1c2cc(Br)ccc2nc(-c2cccc(Cl)c2)n1O	active
Cc1cccc(-c2nc3ccccc3c(=O)n2NC(=O)Cc2ccc(Cl)cc2)c1	inactive
CCC(C)(C)n1nnnc1CN1CCN(c2nc3ccc(C)cc3cc2C#N)CC1	inactive
CCCNc1ncnc2sc(C)c(C)c12	active
NC(=O)c1cc(-c2cccnc2)nc2ccc(Br)cc12	inactive
CCOc1ccc(CN2CCC(n3nccc3NC(=O)C3CC3)CC2)cc1CO	inactive
Cc1ccc(NC(=O)c2nc[nH]c2C(=O)N2CCCCC2)c(C(=O)c2ccccc2)c1	inactive
COCCn1c(C)cc(C(=O)CN2c3cccc4cccc(c34)S2(=O)=O)c1C	inactive
COc1ccc(CNS(=O)(=O)c2cc3c4c(c2)CCN4C(=O)CC3)cc1	inactive
O=C(CSc1cccc2cccnc12)N/N=C/c1cccnc1	active
CN1CCN(C(CNS(=O)(=O)c2cccs2)c2cccnc2)CC1 (centres undefined)	inactive
O=C(Nc1ccc2oc(-c3ccccc3F)nc2c1)c1ccco1	active
CC(=O)Oc1ccc2c(c1)C(=O)c1ccccc1C2=O	active
CCN(CC)CC(=O)Nc1sc2c(c1C(=O)c1ccccc1C)CCC2	inactive
O=C(Nc1cccc(-c2nc3ncccc3o2)c1)c1ccco1	inactive
Cc1sc2ncnc(Sc3nc4ccccc4s3)c2c1C	inactive
Cc1cc(NC(=O)CSCc2nc(-c3cccc(Cl)c3)oc2C)no1	inactive
Cc1cc(NC(=O)c2ccc(F)cc2)ccc1NC(=O)c1ccco1	inactive
COc1cc(NS(=O)(=O)c2ccc(N/C=C(\C=O)c3nc4cc(Cl)ccc4o3)cc2)nc(OC)n1	inactive

====

PROTOCOL_NOTES: growth inhibitors of tim23-1 mutant yeast, primary screen, luminescence, uHTS (AID 463212);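 further: temperature-sensitive mutant grown at 25 °C; plate controls were DMSO-treated mutant yeast for no effect and medium wells lacking yeast for full effect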
DETAILS: S. cerevisiae tim23-1 growth, BacTiter-Glo luminescence, 24 h; at 20 µM
Out of some 330,000 compounds screened, about 4,400 (1.3%) were called active.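 The calls were made as follows: active = growth inhibition of the mutant yeast at or above 50%; inactive = the rest.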 The entries come from a sample that favours actives as a whole.
Possible outcomes: 1.0 (active), 0.0 (inactive)

MOLECULE	QUALITATIVE_LABEL
CC(C)CNC(=O)CC(c1ccccc1)c1c(O)ccc2ccccc12 (stereo not given)	0.0
CC(=O)O[C@H]1CC[C@@]2(C)[C@@H](CC[C@@H]3[C@@H]2CC[C@]2(C)[C@@H](C(C)(C)O)C[C@@H]32)C1	0.0
O=C(Nc1nnc(SCc2c(Cl)cccc2Cl)s1)c1cccc([N+](=O)[O-])c1	0.0
Oc1ccc2ccccc2c1C=Nc1ccccc1	1.0
Cc1cc(OC(=O)c2c(Cl)cccc2Cl)nc(C)n1	0.0
COC(=O)C(C)NC(=O)COc1ccc2ccccc2c1 (stereo not given)	0.0
Cc1nc2ccccc2nc(=O)c1NNc1ccc([N+](=O)[O-])cc1	0.0
Cc1cccc(NC(=O)c2ccc3ccccc3n2)n1	0.0
O=C(CC(O)(C(F)(F)F)C(F)(F)F)Nc1ccc(Cl)c(Cl)c1	1.0
CCCCC(NC(=O)c1cccc(Br)c1)C(=O)O (stereo not given)	0.0
COc1ccc(NC(=O)C2=C(C)NC(=O)NC2c2ccccc2[N+](=O)[O-])cc1 (stereo not given)	0.0
O=C(NCc1ccccc1Cl)C1CCCO1 (stereo not given)	0.0
N/C(=N\OC(=O)CCc1ccccc1)c1ccc(Cl)cc1	1.0
Cc1ccc(C(=O)OC2=CC(=O)CC(C)(C)C2)cc1	1.0
CSc1nccc(NC(=O)c2ccc(C(C)(C)C)cc2)n1	0.0
O=C(COc1ccc([N+](=O)[O-])cc1Cl)Nn1cnnc1	0.0
Cc1cc(=O)cc(C)[nH]1	0.0
Cc1cccc(N2CCN(C(=O)/C=C/c3ccco3)CC2)c1C	0.0
O=C(/C=C/c1cccc(C(F)(F)F)c1)N1CCN(c2ccccn2)CC1	0.0
COc1ccc(C(=O)CCC(=O)Nc2ccc(Cl)cc2)cc1	0.0

====

PROTOCOL_NOTES: growth inhibitors of tim23-1 mutant yeast, primary screen, luminescence, uHTS (AID 463212);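 further: temperature-sensitive mutant grown at 25 °C; plate controls were DMSO-treated mutant yeast for no effect and medium wells lacking yeast for full effect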
DETAILS: S. cerevisiae tim23-1 growth, BacTiter-Glo luminescence, 24 h; at 20 µM
In all, about 330,000 compounds went through this assay and about 4,400 (1.3%) were called active.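 How the source made its calls: active means growth inhibition of the mutant yeast at or above 50%; inactive means the rest.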 Many of the other results were omitted from the sample, so actives are more common in it than they were.
Possible outcomes: active, inactive

MOLECULE	QUALITATIVE_LABEL
Cc1ccsc1C1C(C#N)=C(N)OC2=C1C(=O)CC(C)(C)C2 (stereo not drawn)	inactive
O=C(O)Cn1c(Cc2ccccc2)nc2ccccc21	inactive
COc1cccc(C2Nc3cccc4cccc(c34)N2)c1	active
O=C(NC(=S)Nc1cccc2c(O)cccc12)c1cccc(Br)c1	active
O=C(Nc1ccc(Cl)cc1)Nc1nnc(/C=C/c2ccccc2)s1	inactive
O=[N+]([O-])c1ccc2nc(-c3ccccn3)[nH]c2c1	inactive
COc1ccc(-c2nc3cc(C)ccn3c2NC2CCCCC2)cc1SC1CCCCC1	active
O=C(Nc1ccccc1)c1nnsc1S(=O)(=O)c1ccc(Cl)cc1	active
CCOc1cc(-c2nc3cc(C)ccn3c2NCC2CCCO2)ccc1O (stereo not drawn)	inactive
O=C(Cc1ccccc1)N1N=C(c2ccncc2)CC1(O)C(F)(F)F (stereo not drawn)	inactive
CCCCOc1ccc(CON(C(C)=O)C(C)=O)cc1Cl	inactive
CC1CCN(C(=S)c2ccc(-c3ccc(Cl)cc3Cl)o2)CC1	inactive
O=C(Nc1ccc(S(=O)(=O)Nc2ccccn2)cc1)c1ccccc1	inactive
O=C(/C=C/c1c(F)cccc1Cl)Nc1nn[nH]n1	inactive
[O-][n+]1c2c(nn1-c1ccc(Cl)c(Cl)c1)-c1nonc1CC2	inactive
Fc1ccccc1-c1cc2cc3c(cc2cn1)OCO3	active
O=C(N/N=C/c1cc2c(cc1Br)OCO2)C1COc2ccccc2O1 (stereo not drawn)	inactive
CCC(=O)N1CCC(C(N)=O)(N2CCCCC2)CC1	inactive
COc1ccc(-c2n[nH]c(C)c2-c2ccccc2OC)c(O)c1	inactive
O=C(N/N=C\c1cc(Br)c(Br)o1)C1COc2ccccc2O1 (stereo not drawn)	active
O=C(COC(=O)C1CCCO1)Nc1nc(-c2ccc(F)cc2)cs1 (stereo not drawn)	inactive
COc1ccc2ccccc2c1CNc1nnnn1C	inactive
COc1ccc(NC(=O)CSc2nc(NS(=O)(=O)c3ccc(C)cc3)cc(=O)[nH]2)cc1	inactive
O=[N+]([O-])c1ccc2c(c1)Nc1nc3ccccc3nc1N2	active
COc1ccc(C2NC(=O)c3ccccc3N2)cc1 (stereo not drawn)	inactive
CSc1ccccc1OCc1cc(C(=O)N2C[C@H]3CC[C@H]2C3)no1	inactive
Cc1cccc(N(C)C(=O)c2cc3c(=O)[nH]c4ccc(C)cc4c3s2)c1	inactive
CC1(C)COC(c2cccn2Cc2ccccc2Cl)=N1	inactive
CC(C)c1ccc(S(=O)(=O)N2CCN(C(C)C(=O)NC3CCCC3)CC2)cc1 (stereo not drawn)	inactive
Cc1cc(C)cc(OCC(=O)Nc2cc(NC(=O)COc3cc(C)cc(C)c3)cc(C(=O)O)c2)c1	inactive
CC(=O)c1ccccc1NC(=O)C1CC(=O)N(c2ccc3c(c2)OCCO3)C1 (stereo not drawn)	inactive
Cc1ccccc1NC(=S)NNC(=O)c1cccc(Br)c1	inactive
CNC(=O)/C(C#N)=C/c1c(F)cccc1Cl	active
CCOC(=O)c1cc2c(=O)n3ccccc3nc2n(CC(C)C)c1=NC(=O)c1c(-c2c(F)cccc2Cl)noc1C	inactive
COc1cccc(CNC(C)C(=O)Nc2ccc(S(=O)(=O)N3CCCC3)cc2)c1 (stereo not drawn)	inactive
CC1CCCC(C)N1C(=O)CN1CCN(c2nc(-c3ccc(F)cc3)cs2)CC1 (stereo not drawn)	active
Cc1c(NC(=O)c2cc(-c3ccc(Cl)s3)nc3ccccc23)c(=O)n(-c2ccccc2)n1C	inactive
Cc1ccc(C(=O)COc2cccc(NC(=O)c3ccco3)c2)cc1	active

====

PROTOCOL_NOTES: growth inhibitors of tim23-1 mutant yeast, primary screen, luminescence, uHTS (AID 463212);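 further: temperature-sensitive mutant grown at 25 °C; plate controls were DMSO-treated mutant yeast for no effect and medium wells lacking yeast for full effect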
DETAILS: S. cerevisiae tim23-1 growth, BacTiter-Glo luminescence, 24 h; at 20 µM; hits give high values
The whole screen tested about 330,000 compounds, of which about 4,400 (1.3%) were called active. Shown is part of a subset that was picked to be rich in actives.
OUTCOME_MEASURE: inhibition (%)

MOLECULE	MEASURED_NUMBER
CCC1=NN(C(=O)Cc2ccc([N+](=O)[O-])cc2)C(O)(c2ccc(Br)cc2)C1 (centres undefined)	50
Cc1ccc(S(=O)(=O)N2CC(O)C[C@H]2C(=O)OCC(=O)Nc2ccc(N3CCOCC3)cc2)cc1C (some centres undefined)	4.11
O=C(CNC(=O)c1ccc(Cl)cc1Cl)NCC(=O)Nc1ccccc1N1CCOCC1	3.5
O=C(COc1ccccc1F)Nc1nc(-c2ccccn2)cs1	28.7
COc1cc2ccccc2cc1C(=O)N1CCOCC1	22.5
O=C(/C(=C/c1cccc(Cl)c1)c1nc2ccccc2[nH]1)c1ccccc1	44.9
CC1Cn2c(nnc2-c2cccs2)S1 (centres undefined)	3.29
CC1CCN(C2=NC(=O)/C(=C/c3ccc(O)cc3)S2)CC1	31.9
Cc1ccc(-n2c(SCC(=O)N/N=C/C=C/c3ccccc3[N+](=O)[O-])nc3ccccc3c2=O)cc1	12.1
CCOc1cc(/C=C2\SC(N3CCCCC3)=NC2=O)ccc1O	38.3
CCC(CC)NC(=O)/C=C/c1cccc([N+](=O)[O-])c1	17.4
CC(C)OC(=O)Cn1nc(C(F)(F)F)c2c1CCCC2	-5.77
Cc1cc(O)c(C(=O)/C=C/c2c(F)c(F)c(F)c(F)c2F)c(=O)o1	19.1
COC1=C(N2CCOCC2)C(=O)c2ccccc2C1=O	2.06
